Target: STING (Homo sapiens, UniProt Q86WV6, G230A/H232R/R293Q/R71H)
Sequence (Q86WV6 whole entry R71H/G230A/H232R/R293Q): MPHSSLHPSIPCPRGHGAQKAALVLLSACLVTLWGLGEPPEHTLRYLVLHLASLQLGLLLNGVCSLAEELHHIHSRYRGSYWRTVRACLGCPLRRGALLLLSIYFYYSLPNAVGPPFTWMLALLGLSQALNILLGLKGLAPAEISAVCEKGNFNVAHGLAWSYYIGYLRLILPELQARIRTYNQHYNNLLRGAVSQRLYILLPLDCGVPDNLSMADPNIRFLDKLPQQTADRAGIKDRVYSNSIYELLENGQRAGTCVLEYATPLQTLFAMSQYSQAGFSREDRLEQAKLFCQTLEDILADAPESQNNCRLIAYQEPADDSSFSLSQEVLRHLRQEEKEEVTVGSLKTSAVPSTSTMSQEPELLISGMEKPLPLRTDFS
Experiment: STING reporter assay: luciferase reporter activity in THP1-Dual KO-IFNAR2 cells stimulated with 2'3'cGAMP
Settings: 2′3′cGAMP 15 μM final, 24h, read-out: hSTING: EC50
Outcome Measure: EC50

Check out these entries, answers already filled in.
- Compound: "O=C(Nc1cnc2sccc2c1)C(=O)Nc1c[nH]c2cc(F)c(F)cc12"
  Result: "200 to 1000 nM"
- Compound: "O=C(NCCN1CCCc2ccccc21)C(=O)Nc1c[nH]c2cc(F)c(F)cc12"
  Result: "200 to 1000 nM"
- Compound: "CC(NC(=O)C(=O)Nc1c[nH]c2cc(F)c(F)cc12)c1ccc(C(F)(F)F)cc1 (stereo not drawn) [Compound 156]"
  Result: "200 to 1000 nM"

Incoming: Field request: EC50 | item: "O=C(NCc1cnc(C2CCC(F)(F)CC2)c(F)c1)C(=O)Nc1c[nH]c2cc(F)c(F)cc12"
Outgoing: 200 to 1000 nM

Incoming: Field request: EC50 | item: "C[C@@H](NC(=O)C(=O)Nc1c[nH]c2cc(F)c(F)cc12)c1cccc(C(F)(F)F)c1"
Outgoing: 200 to 1000 nM

Incoming: Field request: EC50 | item: "O=C(Nc1ccc(C(F)(F)F)cc1)C(=O)Nc1c[nH]c2ccc(F)c(F)c12"
Outgoing: 200 to 1000 nM

====

Molecular target: STING (Homo sapiens, UniProt Q86WV6, G230A/H232R/R293Q/R71H)
Experiment: STING reporter assay: luciferase reporter activity in THP1-Dual KO-IFNAR2 cells stimulated with 2'3'cGAMP
Conditions: 2′3′cGAMP 15 μM final, 24h, read-out: hSTING: EC50
pEC50: −log10 of the molar value.
Each entry below carries its reported pEC50.

Incoming: Field request: pEC50 | item: "O=C(Nc1ccc2c(c1)oc(=O)n2Cc1ccccc1)C(=O)Nc1c[nH]c2cc(F)c(F)cc12"
Outgoing: 6.00 to 6.70

====

Target: STING (Homo sapiens, UniProt Q86WV6, G230A/H232R/R293Q/R71H)
Experiment: STING reporter assay: luciferase reporter activity in THP1-Dual KO-IFNAR2 cells stimulated with 2'3'cGAMP
Settings: 2′3′cGAMP 15 μM final, 24h, read-out: hSTING: EC50
pEC50: −log10 of the molar value.
Each entry below carries its reported pEC50.

Check out these entries, answers already filled in.
- Compound: "O=C(Nc1ccc(-n2cncn2)c(Cl)c1)C(=O)Nc1c[nH]c2cc(F)c(F)cc12"
  pEC50: "5.30 to 6.00"
- Compound: "COc1ccc(Oc2ccc(NC(=O)C(=O)Nc3c[nH]c4cc(F)c(F)cc34)cc2C)cn1"
  pEC50: "6.00 to 6.70"
- Compound: "O=C(Nc1c[nH]c2cc(F)c(Cl)cc12)C(=O)N[C@H]1CC[C@H](Oc2ccc(C(F)(F)F)cn2)CC1"
  pEC50: "6.00 to 6.70"
- Compound: "O=C(Nc1c[nH]c2cc(F)c(F)cc12)C(=O)NC1CCC(Oc2ccc(C(F)(F)F)cn2)C1 (stereo not drawn)"
  pEC50: "6.00 to 6.70"
- Compound: "O=C(NC[C@H](C(F)F)C1CCCCC1)C(=O)Nc1c[nH]c2cc(F)c(F)cc12"
  pEC50: "6.70 to 7.40"
- Compound: "O=C(Nc1c[nH]c2cc(F)c(F)cc12)C(=O)N[C@@H]1CCN(c2ccccc2)C1"
  pEC50: "5.30 to 6.00"
- Compound: "O=C(Nc1c[nH]c2cc(F)c(F)cc12)C(=O)NC1CCC2(CCCCO2)CC1 (stereo not drawn)"
  pEC50: "6.00 to 6.70"
- Compound: "O=C(Nc1c[nH]c2cc(F)c(F)cc12)C(=O)NC1CCc2ccccc2C1 (stereo not drawn)"
  pEC50: "6.00 to 6.70"

Incoming: Field request: pEC50 | item: "O=C(Nc1c[nH]c2cc(F)c(F)cc12)C(=O)N[C@H]1CC[C@H](OCC(F)F)CC1"
Outgoing: 6.00 to 6.70

Incoming: Field request: pEC50 | item: "CN(CCNC(=O)C(=O)Nc1c[nH]c2cc(F)c(F)cc12)c1ccccn1"
Outgoing: 6.00 to 6.70

====

Each entry below carries its reported pEC50.
Target: STING (Homo sapiens, UniProt Q86WV6, G230A/H232R/R293Q/R71H)
Experiment: STING reporter assay: luciferase reporter activity in THP1-Dual KO-IFNAR2 cells stimulated with 2'3'cGAMP
Settings: 2′3′cGAMP 15 μM final, 24h, read-out: hSTING: EC50
pEC50: −log10 of the molar value.

Check out these entries, answers already filled in.
- Compound: "O=C(Nc1c[nH]c2cc(F)c(F)cc12)C(=O)N[C@H]1CC[C@@H](Oc2ccc(C(F)(F)F)cc2)CC1 [Compound 249]"
  pEC50: "5.30 to 6.00"
- Compound: "C[C@@H](CN(C)c1ccccc1)NC(=O)C(=O)Nc1c[nH]c2cc(F)c(F)cc12 (stereo in doubt) [Compound 319]"
  pEC50: "6.00 to 6.70"
- Compound: "COc1cc(NC(=O)C(=O)Nc2c[nH]c3cc(F)c(F)cc23)ccc1N1CCCC1 [Compound 293]"
  pEC50: "6.00 to 6.70"
- Compound: "O=C(NCC(=O)N1CCc2ccc(C(F)(F)F)cc21)C(=O)Nc1c[nH]c2cc(F)c(F)cc12 [Compound 204]"
  pEC50: "6.70 to 7.40"
- Compound: "CN1CCOc2cc(NC(=O)C(=O)Nc3c[nH]c4cc(F)c(F)cc34)cnc21 [Compound 219]"
  pEC50: "5.30 to 6.00"
- Compound: "O=C(Nc1c[nH]c2cc(F)c(F)cc12)C(=O)NC1CCC(Cc2ccccc2)CC1 (stereo not shown) [Compound 122]"
  pEC50: "6.00 to 6.70"
- Compound: "O=C(NCC1CCCC(F)(F)C1)C(=O)Nc1c[nH]c2cc(F)c(F)cc12 (stereo not shown) [Compound 150]"
  pEC50: "6.00 to 6.70"
- Compound: "O=C(Nc1c[nH]c2cc(F)c(F)cc12)C(=O)N[C@H]1CC[C@H](Oc2ccc(C(F)(F)F)cc2)CC1 [Compound 250]"
  pEC50: "6.70 to 7.40"
- Compound: "O=C(Nc1ccc(C(F)(F)F)cc1)C(=O)Nc1c[nH]c2cc(F)ccc12 [Compound 172]"
  pEC50: "6.00 to 6.70"
- Compound: "O=C(Nc1ccc(C(F)(F)F)cc1)C(=O)Nc1c[nH]c2ccc(F)cc12 [Compound 184]"
  pEC50: "6.00 to 6.70"

Incoming: Field request: pEC50 | item: O=C(NCc1ccc(Cl)c(C(F)(F)F)n1)C(=O)Nc1c[nH]c2cc(F)c(F)cc12 [Compound 334]
Outgoing: 6.00 to 6.70

Incoming: Field request: pEC50 | item: CC[C@H]1CC[C@@H](NC(=O)C(=O)Nc2c[nH]c3cc(F)c(F)cc23)CC1 [Compound 185]
Outgoing: 6.00 to 6.70

Incoming: Field request: pEC50 | item: O=C(Nc1c[nH]c2cc(F)c(F)cc12)C(=O)N[C@H]1CC[C@@H](Oc2ccc(C(F)(F)F)cn2)CC1 [Compound 229]
Outgoing: 5.30 to 6.00

Incoming: Field request: pEC50 | item: Cc1ccc(Cl)cc1NC(=O)C(=O)Nc1c[nH]c2cc(F)c(F)cc12 [Compound 130]
Outgoing: 6.00 to 6.70

Incoming: Field request: pEC50 | item: O=C(Nc1c[nH]c2cc(F)c(F)cc12)C(=O)N[C@@H]1CCCC(Oc2ccc(C(F)(F)F)cc2)C1 (stereo partly shown) [Compound 234]
Outgoing: 6.00 to 6.70

Incoming: Field request: pEC50 | item: O=C(Nc1c[nH]c2cc(F)ccc12)C(=O)NC1CCC(Oc2ccc(C(F)(F)F)cn2)CC1 (stereo not shown) [Compound 225]
Outgoing: 6.70 to 7.40

====

Biological target: STING (Homo sapiens, UniProt Q86WV6, G230A/H232R/R293Q/R71H)
Experiment: STING reporter assay: luciferase reporter activity in THP1-Dual KO-IFNAR2 cells stimulated with 2'3'cGAMP
Settings: 2′3′cGAMP 15 μM final, 24h, read-out: hSTING: EC50
pEC50: −log10 of the molar value.
Each entry below carries its reported pEC50.

Check out these entries, answers already filled in.
- Compound: "O=C(Nc1c[nH]c2cc(F)c(F)cc12)C(=O)NC1CCC(OCC(F)F)CC1 (stereo not shown)"
  Result: "6.00 to 6.70"
- Compound: "O=C(NCc1ccc(C(F)(F)F)cn1)C(=O)Nc1c[nH]c2cc(F)c(F)cc12"
  Result: "6.70 to 7.40"
- Compound: "O=C(Nc1c[nH]c2cc(F)c(F)cc12)C(=O)NC1CCC2(CCCCC2)CC1"
  Result: "6.00 to 6.70"
- Compound: "O=C(Nc1c[nH]c2cc(F)c(F)cc12)C(=O)NC1CC(Oc2ccc(C(F)(F)F)cn2)C1 (stereo not shown)"
  Result: "6.70 to 7.40"
- Compound: "O=C(NCc1ccc(C(F)(F)F)c(Cl)c1)C(=O)Nc1c[nH]c2ccc(-c3cnn(CC(F)(F)F)c3)cc12"
  Result: "6.00 to 6.70"

Incoming: Field request: pEC50 | item: "O=C(NCc1ccc(Cl)c(C(F)(F)F)c1)C(=O)Nc1c[nH]c2cc(F)c(F)cc12"
Outgoing: 6.70 to 7.40

Incoming: Field request: pEC50 | item: "O=C(NCc1ccc(C(F)(F)F)c(Cl)c1)C(=O)Nc1c[nH]c2ccc(-c3cccc(CO)c3)cc12"
Outgoing: 5.30 to 6.00

Incoming: Field request: pEC50 | item: C[C@H](NC(=O)C(=O)Nc1c[nH]c2cc(F)c(F)cc12)c1cc(C(F)(F)F)c(Cl)cn1 (stereo in doubt)
Outgoing: 6.70 to 7.40

Incoming: Field request: pEC50 | item: O=C(Nc1c[nH]c2cc(F)c(F)cc12)C(=O)N[C@@H]1CCC2(CCCCC2)C1 (stereo in doubt)
Outgoing: 6.70 to 7.40

Incoming: Field request: pEC50 | item: "CC(C)n1cc(-c2ccc3[nH]cc(NC(=O)C(=O)Nc4ccc(C(F)(F)F)cc4)c3c2)cn1"
Outgoing: 6.00 to 6.70

Incoming: Field request: pEC50 | item: "N#Cc1ccc2[nH]cc(NC(=O)C(=O)NCc3ccc(C(F)(F)F)c(Cl)c3)c2c1"
Outgoing: 6.00 to 6.70

Incoming: Field request: pEC50 | item: O=C(Nc1c[nH]c2cc(F)c(F)cc12)C(=O)NC1CCC(Oc2ccc(C(F)(F)F)cc2)CC1 (stereo not shown)
Outgoing: 6.70 to 7.40

Incoming: Field request: pEC50 | item: "O=C(Nc1ccc2c(cnn2Cc2cccc(F)c2)c1)C(=O)Nc1c[nH]c2cc(F)c(F)cc12"
Outgoing: 6.00 to 6.70

Incoming: Field request: pEC50 | item: "O=C(Nc1ccc(C2CCOCC2)cc1)C(=O)Nc1c[nH]c2cc(F)c(F)cc12"
Outgoing: 6.70 to 7.40
